B1: tRNA (parent)
chain: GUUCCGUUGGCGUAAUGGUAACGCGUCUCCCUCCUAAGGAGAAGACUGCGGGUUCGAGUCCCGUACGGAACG

Variants of: B1
test.description: yeast fitness relative to wild type (ratio to wild type); higher = fitter; tRNA-Arg(CCU), competitive growth, 37 C, YPD
This sample holds only a part of the variants without activity.
Listing of recorded yeast fitness by entry.
measured.parameter: yeast fitness

- C11G U28C U54C G58A: 0.53
- C30U G67U: 0.83
- U26A C49U: 0.865
- U16C G58C: 1.06
- C34A A65G: 0.69
- A36U G48C: 0.648
- G6C C11U A21C: 0.671
- A20G C60U A69U: 0.592
- U3C C22A G67A: 0.667
